- target of assay: USP30 (Homo sapiens (Human))
- Sequence (Q70CQ3 57-517): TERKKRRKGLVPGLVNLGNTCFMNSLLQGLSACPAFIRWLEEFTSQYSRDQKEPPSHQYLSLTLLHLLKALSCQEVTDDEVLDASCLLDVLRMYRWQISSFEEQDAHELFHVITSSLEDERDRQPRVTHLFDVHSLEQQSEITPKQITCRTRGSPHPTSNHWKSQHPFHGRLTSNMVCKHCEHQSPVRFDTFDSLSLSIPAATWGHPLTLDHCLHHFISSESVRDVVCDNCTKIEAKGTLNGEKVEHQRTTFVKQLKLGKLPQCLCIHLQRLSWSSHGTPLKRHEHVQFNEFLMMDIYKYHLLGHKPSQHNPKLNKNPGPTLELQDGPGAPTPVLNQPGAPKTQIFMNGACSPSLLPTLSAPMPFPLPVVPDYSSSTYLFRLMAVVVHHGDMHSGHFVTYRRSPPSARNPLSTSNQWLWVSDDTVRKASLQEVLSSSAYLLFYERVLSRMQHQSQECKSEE
pIC50: −log10 of the molar value.
measured attribute: pIC50

INPUT: Look at this compound and give its reported pIC50. N#CN1CCC(c2cc(-c3ccnc(-c4ccccc4)c3)[nH]n2)C1 (centres unmarked)
OUTPUT: 6.00 to 7.00

INPUT: What do you get for N#CN1CCC[C@H]1c1nc2ccc(-c3ccccc3)cc2[nH]1 ?
OUTPUT: 5.00 to 6.00

INPUT: How about N#CN1C[C@@H](c2cc(-c3cccc(-c4ccccc4)c3)n[nH]2)[C@H](C2CC2)C1 (relative stereo) ?
OUTPUT: 6.00 to 7.00

INPUT: Record: COc1cc(-c2nc(C3CCN(C#N)C3)no2)nc2ccccc12 (centres unmarked)
OUTPUT: 5.00 to 6.00

INPUT: How about this compound: N#CN1CCC(c2noc(-c3cccc(-c4ccccc4)c3)n2)C1 (centres unmarked)
OUTPUT: > 7.00

* * *

Parameter 'readout' = IC50; parameter 'system' = USP30 (Homo sapiens (Human)).

N#CN1CCC(c2nc3ccc(-c4ccc(C(N)=O)cc4)cc3[nH]2)C1 (centres unmarked) | 100 to 1000 nM
N#Cc1cccc(-c2ccc3nc([C@@H]4CCCN4C#N)oc3c2)c1 | 100 to 1000 nM
Cn1cc(-c2ccc(-c3nc(C4CCN(C#N)C4)no3)cc2)cn1 (centres unmarked) | 100 to 1000 nM
N#Cc1cc(-c2ccnc(-c3nc([C@@H]4CCCN4C#N)no3)c2)ccn1 | 100 to 1000 nM

Moving on to the next compound.
INPUT: # get_value(readout= IC50, system= USP30 (Homo sapiens (Human))) for CC(C)Cn1cc(-c2ccc3nc(C4CCN(C#N)C4)[nH]c3c2)cn1 (centres unmarked)
OUTPUT: 1000 to 10000 nM

* * *

For USP30 (Homo sapiens (Human)), measured pIC50 is reported for the entries below.
pIC50: −log10 of the molar value.

A selection of reference data follows.
CS(=O)(=O)c1ccc(-c2cccc(-c3nc(C4CCCN4C#N)no3)c2)cc1 (centres unmarked) [Example 153] | 6.00 to 7.00
N#Cc1ccc(-c2cccc(-c3nc([C@@H]4CCCN4C#N)no3)c2)cc1 [Example 174] | > 7.00

INPUT: What value of measured pIC50 is listed for CCc1cccc(-c2ccc3nc([C@@H]4CCCN4C#N)oc3c2)c1 [Example 130] ?
OUTPUT: 6.00 to 7.00

INPUT: And for COc1ncccc1-c1cccc(-c2nc(C3CCCN3C#N)no2)c1 (centres unmarked) [Example 162] ?
OUTPUT: 6.00 to 7.00

INPUT: Lookup N#CN1CCC(c2noc(-c3ccc(-c4ccccc4)[nH]c3=O)n2)C1 (centres unmarked) [Example 52]
OUTPUT: 5.00 to 6.00

INPUT: Same lookup for N#CN1CCC(c2cc(-c3cccc(-c4ccncc4)c3)n[nH]2)C1 (centres unmarked) [Example 28] , please.
OUTPUT: 6.00 to 7.00

INPUT: Same thing, different compound: N#CN1CCC(c2cc(-c3ccc(-c4ccccc4)cn3)n[nH]2)C1 (centres unmarked) [Example 194]
OUTPUT: > 7.00

INPUT: What do you have for CC(=O)Nc1ccc(-c2cc(C3CCN(C#N)C3)[nH]n2)cc1 (centres unmarked) [Example 9] ?
OUTPUT: 5.00 to 6.00

INPUT: Now this one: N#CN1CCC(c2cccc(-c3ccccc3)c2N)C1 (centres unmarked) [Example 123]
OUTPUT: 6.00 to 7.00

INPUT: Note, next up: N#CN1CCC(c2nc3cc(-c4cn[nH]c4)cnc3[nH]2)C1 (centres unmarked) [Example 88]
OUTPUT: 5.00 to 6.00

INPUT: Similarly, N#CN1CC[C@@H](c2cc(-c3cccc(-c4cnoc4)c3)[nH]n2)C1 [Example 32] ?
OUTPUT: 5.00 to 6.00

INPUT: Likewise for N#CN1CCCC1c1noc(-c2cccc(-c3ccccc3)c2)n1 (centres unmarked) [Example 68] ?
OUTPUT: 6.00 to 7.00

INPUT: Another compound to look at: N#CN1CCCC1c1noc(-c2cccc(-c3ccc(C(N)=O)cc3)c2)n1 (centres unmarked) [Example 149]
OUTPUT: 5.00 to 6.00

INPUT: How about N#CN1CCC(c2cc(-c3ccc(-c4ccccc4)nc3)n[nH]2)C1 (centres unmarked) [Example 40] ?
OUTPUT: 6.00 to 7.00

INPUT: Same again, this time with N#CN1CCC(c2nc3cc(-c4ccncc4)cnc3[nH]2)C1 (centres unmarked) [Example 80]
OUTPUT: 6.00 to 7.00

INPUT: What do you get for N#CN1CCC(c2cnc3cc(-c4ccccc4)ccn23)C1 (centres unmarked) [Example 124] ?
OUTPUT: 6.00 to 7.00

INPUT: Param item: N#CN1CCC(c2nc3ccc(-c4ccc(C(=O)NCc5ccccc5)cc4)cc3[nH]2)C1 (centres unmarked) [Example 79]
OUTPUT: 6.00 to 7.00

INPUT: Request: N#CN1CCCC1c1noc(-c2ccnc(-c3cccc(OC(F)(F)F)c3)n2)n1 (centres unmarked) [Example 184]
OUTPUT: > 7.00

INPUT: Next up: N#CN1CCCC1c1noc(-c2ccc(-c3ccccc3)cc2)n1 (centres unmarked) [Example 67]
OUTPUT: 5.00 to 6.00

INPUT: Now consider C[C@H]1CN(C#N)C[C@@H]1c1[nH]nc(-c2cccc(-c3ccccc3)c2)c1F [Example 22] .
OUTPUT: > 7.00

INPUT: And what about the compound Cn1cc(-c2cccc(-c3cc(C4CCN(C#N)C4)n[nH]3)c2)cn1 (centres unmarked) [Example 31] ?
OUTPUT: 5.00 to 6.00

INPUT: Do the same for N#CN1CCC(c2n[nH]c(-c3ccnc(-c4ccccc4)c3)n2)C1 (centres unmarked) [Example 199] please
OUTPUT: 6.00 to 7.00

INPUT: What do we get for CNC(=O)c1ccc(-c2ccc3nc(C4CCN(C#N)C4)[nH]c3c2)cc1 (centres unmarked) [Example 75] ?
OUTPUT: 6.00 to 7.00
